These data points were gathered from patent US8859529B2.

# TEST NAME: Area under the curve determinations of plasma levels in rats (rrAUC)
# Assay type: in vivo
# PARTICULARS: rapid rat AUC of the drug (parent) in plasma; oral 10 mg/kg, fasted rats, blood 0.5-6 h post-dosing
Quick list: PK (rrAUC) parent per entry.
Number only, in nM·h; omit the unit.

Here is how some compounds turned out for PK (rrAUC) parent.
COMPOUND: COc1ccc2c(c1F)C(=O)N(C[C@@]1(c3cc4nc(N5C[C@H](O)CC5=O)ccc4o3)NC(=O)N(COC(=O)C(C)(C)C)C1=O)C2 [Compound 37]
UNITS SYMBOL: nM·h
PK (rrAUC) parent: 0
--
COMPOUND: COc1ccc2c(c1)C(=O)N(C[C@@]1(c3cc4cnccc4o3)NC(=O)N(Cc3cccnc3)C1=O)C2 [Compound 48.1]
UNITS SYMBOL: nM·h
PK (rrAUC) parent: 0

Data request: What measured PK (rrAUC) parent goes with CCCC(=O)OCN1C(=O)N(C(=O)CCC)[C@@](CN2Cc3ccc(OC)cc3C2=O)(c2cc3cnccc3o2)C1=O [Compound 82] ?
Data returned: 783

Data request: What measured PK (rrAUC) parent goes with COc1ccc2c(c1)C(=O)N(C[C@@]1(c3cc4cc(-c5cc(=O)[nH]c(N)n5)ccc4o3)NC(=O)N(COC(=O)C(C)(C)C)C1=O)C2 [Compound 27] ?
Data returned: 0

Data request: What measured PK (rrAUC) parent goes with COc1ccc2c(c1)C(=O)N(C[C@@]1(c3cc4cnccc4o3)NC(=O)N(COC(=O)OCC3COCO3)C1=O)C2 (stereo partly shown) [Compound 63.1] ?
Data returned: 0

Data request: What measured PK (rrAUC) parent goes with COc1ccc2c(c1)C(=O)N(C[C@@]1(c3cc4ncccc4o3)NC(=O)N(COC(=O)c3ccccc3OC(C)=O)C1=O)C2 [Compound 65] ?
Data returned: 4426

Data request: What measured PK (rrAUC) parent goes with COc1ccc2c(c1F)C(=O)N(C[C@@]1(c3cc4c5c(ccc4o3)CNC5=O)NC(=O)N(COC(=O)C(C)(C)C)C1=O)C2 [Compound 8] ?
Data returned: 2193

Data request: What measured PK (rrAUC) parent goes with CCOc1ccc2c(c1F)C(=O)N(C[C@@]1(c3cc4nc(N5CCN(CC)CC5)ccc4o3)NC(=O)N(COC(=O)C(C)(C)C)C1=O)C2 [Compound 39] ?
Data returned: 927

Data request: What measured PK (rrAUC) parent goes with CCOC(=O)N(C)CCOC(=O)OCN1C(=O)N[C@@](CN2Cc3ccc(OC)cc3C2=O)(c2cc3cnccc3o2)C1=O [Compound 63.5] ?
Data returned: 0

Data request: What measured PK (rrAUC) parent goes with COc1ccc2c(c1)C(=O)N(C[C@@]1(c3cc4cnccc4o3)NC(=O)N(COC(=O)N3CCN(C)CC3)C1=O)C2 [Compound 68] ?
Data returned: 13539

Data request: What measured PK (rrAUC) parent goes with COc1ccc2c(c1F)C(=O)N(C[C@@]1(c3cc4nc(N5C[C@@H](O)CC5=O)ccc4o3)NC(=O)N(COC(=O)C(C)(C)C)C1=O)C2 [Compound 38] ?
Data returned: 1736

Data request: What measured PK (rrAUC) parent goes with COc1ccc2c(c1)C(=O)N(C[C@@]1(c3cc4nc(NS(C)(=O)=O)ccc4o3)NC(=O)N(COC(=O)C(C)(C)C)C1=O)C2 [Compound 26] ?
Data returned: 0

Data request: What measured PK (rrAUC) parent goes with COc1ccc2c(c1)C(=O)N(C[C@@]1(c3cc4nc(-c5c(C)nn(C)c5C)ccc4o3)NC(=O)N(COC(=O)C(C)(C)C)C1=O)C2 [Compound 17] ?
Data returned: 2005
